Reported IC50 by item:
Target: UniProt P21554
Sequence (P21554 whole entry): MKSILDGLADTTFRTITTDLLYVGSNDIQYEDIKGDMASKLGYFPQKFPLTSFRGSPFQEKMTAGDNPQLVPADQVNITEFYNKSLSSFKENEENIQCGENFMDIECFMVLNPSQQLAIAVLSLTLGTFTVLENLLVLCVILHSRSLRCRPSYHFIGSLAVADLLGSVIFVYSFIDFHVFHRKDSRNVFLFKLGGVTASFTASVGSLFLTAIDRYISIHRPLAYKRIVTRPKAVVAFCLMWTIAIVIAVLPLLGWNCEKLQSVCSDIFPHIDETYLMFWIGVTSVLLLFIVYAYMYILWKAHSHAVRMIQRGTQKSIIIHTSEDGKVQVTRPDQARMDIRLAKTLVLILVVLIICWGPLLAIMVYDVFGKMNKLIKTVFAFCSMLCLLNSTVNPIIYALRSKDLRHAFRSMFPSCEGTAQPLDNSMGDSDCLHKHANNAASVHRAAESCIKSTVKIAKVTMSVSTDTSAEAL
Experiment: cAMP CNR1 Hunter cell line antagonist assay (CB1 assay)
Conditions: antagonist mode, cAMP CNR1 Hunter cells, EC80 agonist; read-out: CB1 assay, Efficacy (IC50)
Measured Property: IC50

[[record]]
molecule = "CCC1Oc2cc(S(=O)(=O)Nc3ccc(C)c(F)c3)c(Cl)cc2NC1=O (stereo not drawn) [BC19212]"
reported_value = "1 to 25 µM"

[[record]]
molecule = "CCC1Oc2cc(S(=O)(=O)Nc3ccc(C)c(Cl)c3)c(Cl)cc2NC1=O (stereo not drawn) [BC19745]"
reported_value = "1 to 25 µM"

[[record]]
molecule = "CC1Oc2cc(S(=O)(=O)Nc3ccc(C#N)cc3)c(Br)cc2N(C)C1=O (stereo not drawn) [BC19920]"
reported_value = "1 to 25 µM"

[[record]]
molecule = "CCC1Oc2cc(S(=O)(=O)Nc3ccc(F)c(F)c3)c(Br)cc2N(C)C1=O (stereo not drawn) [BC19926]"
reported_value = "≥ 25 µM"

[[record]]
molecule = "O=C1CCOc2cc(S(=O)(=O)Nc3cccc(F)c3)c(Br)cc2N1 [BC19654]"
reported_value = "≥ 25 µM"

[[record]]
molecule = "COc1ccc(NS(=O)(=O)c2cc(Br)cc3c2OCC(=O)N3)cc1 [BC19175]"
reported_value = "≥ 25 µM"

[[record]]
molecule = "CCS(=O)(=O)c1cc2c(c(S(=O)(=O)Nc3ccc(OC)c(Cl)c3)c1)OCC(=O)N2 [BC19547]"
reported_value = "≥ 25 µM"

[[record]]
molecule = "CCC1Oc2c(cc(Br)cc2S(=O)(=O)Nc2ccc(Cl)cc2)N(C)C1=O (stereo not drawn) [BC19929]"
reported_value = "≥ 25 µM"

[[record]]
molecule = "CC1Oc2c(cc(Cl)cc2S(=O)(=O)Nc2ccc(Cl)cc2)NC1=O (stereo not drawn) [BC19697]"
reported_value = "≥ 25 µM"

[[record]]
molecule = "CCC1Oc2cc(S(=O)(=O)Nc3ccc(C)c(Cl)c3)c(Br)cc2N(C)C1=O (stereo not drawn) [BC19938]"
reported_value = "≥ 25 µM"

[[record]]
molecule = "CC(C)(C)C1CCC(NS(=O)(=O)c2cc3c(cc2Br)NC(=O)CO3)CC1 (stereo not drawn) [BC19388]"
reported_value = "≥ 25 µM"

[[record]]
molecule = "COc1ccc(NS(=O)(=O)c2cc(Br)cc3c2OC(CC(C)C)C(=O)N3)cc1Cl (stereo not drawn) [BC19779]"
reported_value = "≥ 25 µM"

[[record]]
molecule = "CCc1cccc(NS(=O)(=O)c2cc3c(cc2Br)NC(=O)CCO3)c1 [BC19657]"
reported_value = "≥ 25 µM"

[[record]]
molecule = "CC(C)CC1Oc2c(cc(Br)cc2S(=O)(=O)Nc2ccc(C(C)C)cc2)NC1=O (stereo not drawn) [BC19765]"
reported_value = "≥ 25 µM"

[[record]]
molecule = "CC1Oc2cc(S(=O)(=O)Nc3ccc(F)cc3)c(Br)cc2N(C)C1=O (stereo not drawn) [BC19910]"
reported_value = "≥ 25 µM"

[[record]]
molecule = "CCC1Oc2c(cc(Br)cc2S(=O)(=O)Nc2cccc(F)c2)NC1=O (stereo not drawn) [BC19231]"
reported_value = "≥ 25 µM"

[[record]]
molecule = "Cc1ccc(NS(=O)(=O)c2cc3c(cc2Cl)NC(=O)C(C)O3)cc1Cl (stereo not drawn) [BC19708]"
reported_value = "≥ 25 µM"

[[record]]
molecule = "Cc1ccc(NS(=O)(=O)c2cc(Br)cc3c2OCCNC3=O)cc1 [BC19612]"
reported_value = "≥ 25 µM"

